# System under test: T1, CRH (NT-Biotin) (human and mouse (same sequence), not fully specified; biotin at the N-terminus)
# T1 peptide: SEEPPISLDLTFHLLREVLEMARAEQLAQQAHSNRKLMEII
# Procedure text: ELISA, biotinylated CRH on streptavidin plate
Assay metric: pEC50
# pEC50 = -log10(concentration in molar units)

1) PR302052 (antibody, human IgG1, kappa, V domains shown, humanized variant of PR301777) VH: EMQLVESGGGLVQPGGSLKLSCAASGFTFSNYWMNWVRQASGKGLEWVAEIRLKSNNYATHYAESVKGRFTISRDDSKSTVYLQMNSLKTEDTAVYYCTVGTLVYWGQGTLVTVSS VL: EIVLTQSPATLSLSPGERATLSCRASQSVSTSTYNYMHWFQQKPGQAPRLLIKFASNLESGIPARFSGSGSGTDFTLTISSLEPEDTAVYYCQHSWEIPYTFGQGTKLEIKR    10.32

May I ask what pEC50 has been recorded for PR004290 (antibody, human IgG1, kappa, V domains shown, Series 1; human IgG1 wildtype Fc; also called Hybridoma Clone 28b3) VH: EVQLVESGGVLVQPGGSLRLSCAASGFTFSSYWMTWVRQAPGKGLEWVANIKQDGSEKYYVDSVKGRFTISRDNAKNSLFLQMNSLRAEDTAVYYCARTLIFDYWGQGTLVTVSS VL: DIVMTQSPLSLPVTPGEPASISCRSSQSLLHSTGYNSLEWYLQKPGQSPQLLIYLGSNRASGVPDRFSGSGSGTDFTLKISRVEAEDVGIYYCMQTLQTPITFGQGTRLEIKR ?
10.41

// returns reported pEC50 for input PR302043 (antibody, human IgG1, kappa, V domains shown, humanized variant of PR301777) VH: EVQLVESGGGLVQPGGSLKLSCAASGFTFSNYWMNWVRQASGKGLEWVGEIRLKSNNYATHYAESVKGRFTISRDDSKNTAYLQMNSLKTEDTAVYYCTRGTLVYWGQGTLVTVSS VL: DIVLTQSPDSLAVSLGERATINCRASQSVSTSTYNYMHWFQQKPGQPPKLLIKFASNLESGVPDRFSGSGSGTDFTLTISSLQAEDTAVYYCQHSWEIPYTFGQGTKLEIKR
10.34

Field request: pEC50 | item: PR302064 (antibody, human IgG1, kappa, V domains shown, humanized variant of PR301777) VH: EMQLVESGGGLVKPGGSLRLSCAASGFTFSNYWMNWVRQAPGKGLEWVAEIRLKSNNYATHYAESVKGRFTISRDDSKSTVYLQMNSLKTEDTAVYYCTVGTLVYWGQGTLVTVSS VL: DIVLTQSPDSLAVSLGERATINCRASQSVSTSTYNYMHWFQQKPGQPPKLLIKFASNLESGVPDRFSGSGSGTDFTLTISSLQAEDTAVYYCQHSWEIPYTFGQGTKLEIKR
10.21
